These data points were gathered from patent US8338582B2.

Tested on: peripheral blood mononuclear cells from HIV-1 seronegative individuals
Conditions: seronegative individual C#02; peptide 5 μM
Measured IFN-γ spots/10^6 PBMC, listed per entry for reference.
measurement label: IFN-γ spots/10^6 PBMC

1) DKELYPLASLRSLFG [gag 4]: 0 spots/10^6 PBMC
2) NTSYRLISCNTSVI [env 4]: 7 spots/10^6 PBMC
3) SELYLYKVVKIEPLGVAP [env 5]: 0 spots/10^6 PBMC
4) VLEWRFDSRLAFHHV [nef 1]: 3 spots/10^6 PBMC
5) QRPLVTIKIGGQLKE [pol 1]: 0 spots/10^6 PBMC
6) EAIIRILQQLLFIHF [vpr 2]: 12 spots/10^6 PBMC
7) KRWIILGLNKIVRMYSPTSI [gag 3]: 12 spots/10^6 PBMC
8) ALFYKLDVVPID [env 3]: 0 spots/10^6 PBMC
9) GKIILVAVHVASGYI [pol 3]: 2 spots/10^6 PBMC
10) SLQYLALVALVAPKK [vif 2]: 8 spots/10^6 PBMC
11) TMLLGMLMICSAA [env 2]: 7 spots/10^6 PBMC
12) EELRSLYNTVATLYCVH [gag 1]: 7 spots/10^6 PBMC
13) ELLKTVRLIKFLYQSNP [rev 1]: 7 spots/10^6 PBMC
14) SPEVIPMFSALSE [gag 2]: 2 spots/10^6 PBMC
15) QQLLFIHFRIGCRHSRIG [vpr 3]: 8 spots/10^6 PBMC
16) VLAIVALVVATIIAI [vpu 1]: 0 spots/10^6 PBMC
